- System: S. aureus (UC-76)
- testDetails: In vitro antibacterial activity (MIC), S. aureus
- Type: cell-based
- conditionSummary: Staphylococcus aureus, UC76; strain UC-76; lowest concentration preventing macroscopically visible growth; read-out: Minimum Inhibitory concentrations S. aureus (UC-76)
measurementName: MIC (µg/mL)

A: NC(=O)[C@H]1CN(c2cc(F)c(N3CCCSCC3)c(F)c2)C(=O)O1
B: CNC(=O)[C@H]1CN(c2cc(F)c(N3CCC/S(=N\C(=O)C(F)(F)F)CC3)c(F)c2)C(=O)O1 (stereo in doubt)
Lookup: Which value of MIC is numerically greater: that of A or that of B ? Answer = label.
Found: B
(B: 8 µg/mL, A: 2 µg/mL)

P: NC(=O)[C@H]1CN(c2ccc(N3CCC[S+]([O-])CC3)c(F)c2)C(=O)O1 (some centres unmarked)
Q: CNC(=O)[C@H]1CN(c2ccc(N3CCCSCC3)c(F)c2)C(=O)O1
R: CNC(=O)[C@H]1CN(c2ccc(N3CCCS(=O)(=O)CC3)c(F)c2)C(=O)O1
S: CONC(=O)[C@H]1CN(c2cc(F)c(N3CCCS(=O)(=O)CC3)c(F)c2)C(=O)O1
Lookup: Please list the entries, largest MIC first. I'd appreciate it if you listed the labels in the requested order.
Found: R, Q, S, P
(R: 12 µg/mL, Q: 8 µg/mL, S: 4 µg/mL, P: 2 µg/mL)

I: NC(=O)[C@H]1CN(c2cc(F)c(N3CCCS(=O)(=O)CC3)c(F)c2)C(=O)O1
II: NC(=O)[C@H]1CN(c2cc(F)c(N3CCC/S(=N\C(=O)C(F)(F)F)CC3)c(F)c2)C(=O)O1 (some centres unmarked)
Lookup: Hi there, can you help? I need to know whether I or II has lower measured MIC. API: response body contains the label of the selected item.
Found: I
(I: 2 µg/mL, II: 8 µg/mL)

Numbers sourced from patent US20090137553A1.
